System: SN12C renal
ASSAY INFO: NCI-60 one-dose screen, 48 h (100 = growth as untreated, 0 = no growth, -100 = all killed)
CONDITION SET: 10 µM unless noted
This is part of a sample that, as a whole, favours compounds with a hit. Of some 83,000 tested, about 20% had one in any assay.
Label Y when growth >= 90%; otherwise N.

Please review the following examples before continuing.
Query :: Decide: growth of CC(C)(C#N)c1cc(F)cc(C(=O)Nc2cc(Nc3ncccc3-c3ncnc4nc[nH]c34)ccc2F)c1 >= 90%?
Result :: N

Query :: Moving on to the next molecule: O=C1C(=O)c2c(nc3ccc(Br)cn23)-c2ccccc21
Result :: N

Query :: Moving on to the next molecule: Nn1c(SCC(=O)Nc2ccc(Cl)cc2)nnc1-c1cc(F)c(Cl)cc1Cl
Result :: Y

Further cases:
Query :: Decide: growth of COC(=O)/C=C/c1cc(OC)c2c(c1)[C@@H](C(=O)OC)[C@H](c1ccc(OC)c(OC)c1)O2 >= 90%?
Result :: N

Query :: Moving on to the next molecule: CC[C@]12C=CCN3CC[C@@]4(c5cc(NC(=O)CCC(=O)O[C@H]6CC[C@H]7[C@@H]8CC[C@H]9CC(=O)CC[C@]9(C)[C@H]8CC[C@]67C)c(OC)cc5N(C)[C@H]4[C@@](O)(C(=O)OC)[C@@H]1OC(C)=O)[C@@H]32
Result :: N

Query :: Moving on to the next molecule: CCOCc1cc(C(C)(C)C)ccc1O
Result :: Y

---

Test system: M14 melanoma
ASSAY INFO: NCI-60 one-dose screen, 48 h
CONDITION SET: 10 µM unless noted
Compounds without any hit were thinned out: in the full panel of roughly 83,000, 20% have a hit. Calls of active or inactive are those of the source. Rule for the calls: active = growth percent below 10; inactive = the rest.
Classes to choose from: active, inactive

Query :: Called result for Oc1ccc(CNNc2ccnc3c(O)cccc23)c2cccnc12
Result :: inactive

Query :: Moving on to the next compound: Cc1cc2ccccc2c[n+]1CC(=O)c1ccc(-c2ccccc2)cc1
Result :: inactive

Query :: Moving on to the next compound: Cc1cc(Nc2nc(SCc3ccc(C(=O)Nc4ccc(F)cc4N)cc3)nn3cccc23)n[nH]1
Result :: inactive

Query :: Moving on to the next compound: COc1ccccc1Nc1nnc(-c2ccc(Cl)cc2)o1
Result :: inactive

Query :: Moving on to the next compound: CCOC(=O)c1c(C)nc2c(c1N)/C(=C/c1cccs1)C(=O)N2c1ccc(OC)cc1
Result :: inactive

Further cases:
Query :: Called result for Cc1[nH]c(N=Nc2ccccc2)nc1N=Nc1ccccc1
Result :: active

Query :: Moving on to the next compound: Cc1[nH]c2ncnc(Oc3ccc(NC(=O)Nc4ccc(Cl)c(C(F)(F)F)c4)cc3)c2c1C
Result :: inactive

Query :: Moving on to the next compound: COc1ccc(/C(=N\O)c2cc(C)c(OC)c(C)c2)cc1O
Result :: inactive

Query :: Moving on to the next compound: O=[N+]([O-])c1ccc(N=Nc2c(O)c(N=Nc3cc([N+](=O)[O-])cc([N+](=O)[O-])c3O)cc(N=Nc3cc(S(=O)(=O)O)cc4cc(S(=O)(=O)O)cc(O)c34)c2O)cc1
Result :: inactive

Query :: Moving on to the next compound: Cc1c(Cl)cccc1NC(=O)c1sc2nc3c(cc2c1N)COCC3
Result :: inactive
